Test system: MEXF 622
Experiment: 3D clonogenic assay (PDX)
Type: cell-based, human
Conditions: Homo sapiens; MEXF 622, Melanoma; read-out: rel. IC50
pIC50: −log10 of the molar value.
MEASUREMENT_LABEL: pIC50

[[record]]
mol_smiles = "O[C@H](c1cc(-c2ccc(Cl)cc2)nc2ccccc12)[C@@H]1CCCCN1"
measurement_label = "pIC50"
endpoint_value = 5.04


====

Test: Pharmacokinetic evaluation in mice (plasma and brain)
Format: in vivo, male NMRI mice
Settings: male, NMRI, mouse, brain/plasma, po, 20 mg/kg, single oral administration of 20 mg/kg, read-out: exposure ratio AUC(brain/plasma)
MEASUREMENT_LABEL: Kp

[[record]]
mol_smiles = "O[C@H](c1cc(-c2ccc(Cl)cc2)nc2ccccc12)[C@@H]1CCCCN1"
endpoint_value = 1.6

[[record]]
mol_smiles = "O[C@@H](c1cc(-c2ccc(Cl)cc2)nc2ccccc12)[C@H]1CCCCN1"
endpoint_value = 0.9


====

System: LXFA 526
Experiment: 3D clonogenic assay (PDX)
Assay type: cell-based, human
Conditions: Homo sapiens; LXFA 526, Lung Adeno; read-out: abs. IC50
pIC50: −log10 of the molar value.
MEASUREMENT_LABEL: pIC50

[[record]]
mol_smiles = "O[C@H](c1cc(-c2ccc(Cl)cc2)nc2ccccc12)[C@@H]1CCCCN1"
measurement_label = "pIC50"
endpoint_value = 5.49


====

Tested on: LXFA 1041
Assay: 3D clonogenic assay (PDX)
Type: cell-based, human
Conditions: Homo sapiens; LXFA 1041, Lung Adeno; read-out: rel. IC50
MEASUREMENT_LABEL: IC50 (µM)

[[record]]
molecule = "O[C@H](c1cc(-c2ccc(Cl)cc2)nc2ccccc12)[C@@H]1CCCCN1 [S1]"
measurement_label = "IC50"
endpoint_value = 5.25


====

Tested on: LXFL 1121
Assay: 3D clonogenic assay (PDX)
Format: cell-based, human
Details: Homo sapiens; LXFL 1121, Lung Large Cell; read-out: rel. IC50
MEASUREMENT_LABEL: IC50 (µM)

[[record]]
mol_smiles = "O[C@H](c1cc(-c2ccc(Cl)cc2)nc2ccccc12)[C@@H]1CCCCN1"
study_target = "LXFL 1121"
endpoint_value = 8.61


====

System: CXF 742
Experiment: 3D clonogenic assay (PDX)
Assay type: cell-based, human
Conditions: Homo sapiens; CXF 742, Colorectal; read-out: abs. IC50
MEASUREMENT_LABEL: IC50 (µM)

[[record]]
mol_smiles = "O[C@H](c1cc(-c2ccc(Cl)cc2)nc2ccccc12)[C@@H]1CCCCN1"
endpoint_value = 41.3


====

Test: Pharmacokinetic evaluation in mice (plasma and brain)
Assay type: in vivo, male NMRI mice
Conditions: male, NMRI, mouse, iv, brain, i.v., 2 mg/kg, read-out: Brain tmax
Below is a list of entries, each paired with its recorded Tmax value.
MEASUREMENT_LABEL: Tmax

[[record]]
compound = "O[C@H](c1cc(-c2ccc(Cl)cc2)nc2ccccc12)[C@@H]1CCCCN1 [S1]"
endpoint_value = "15 min"

[[record]]
compound = "O[C@@H](c1cc(-c2ccc(Cl)cc2)nc2ccccc12)[C@H]1CCCCN1 [S2]"
endpoint_value = "60 min"


====

Test system: MEXF 1765
Experiment: 3D clonogenic assay (PDX)
Assay type: cell-based, human
Conditions: Homo sapiens; MEXF 1765, Melanoma; read-out: rel. IC50
pIC50: −log10 of the molar value.
MEASUREMENT_LABEL: pIC50

[[record]]
molecule = "O[C@H](c1cc(-c2ccc(Cl)cc2)nc2ccccc12)[C@@H]1CCCCN1 [S1]"
endpoint_value = 5.07

